Entry source: ChEMBL document CHEMBL1140662

Property: IC50; scope: individual compounds
- targetOrTestSystem: Histone deacetylase 1 (Homo sapiens, UniProt Q13547)
- Sequence (Q13547 whole entry): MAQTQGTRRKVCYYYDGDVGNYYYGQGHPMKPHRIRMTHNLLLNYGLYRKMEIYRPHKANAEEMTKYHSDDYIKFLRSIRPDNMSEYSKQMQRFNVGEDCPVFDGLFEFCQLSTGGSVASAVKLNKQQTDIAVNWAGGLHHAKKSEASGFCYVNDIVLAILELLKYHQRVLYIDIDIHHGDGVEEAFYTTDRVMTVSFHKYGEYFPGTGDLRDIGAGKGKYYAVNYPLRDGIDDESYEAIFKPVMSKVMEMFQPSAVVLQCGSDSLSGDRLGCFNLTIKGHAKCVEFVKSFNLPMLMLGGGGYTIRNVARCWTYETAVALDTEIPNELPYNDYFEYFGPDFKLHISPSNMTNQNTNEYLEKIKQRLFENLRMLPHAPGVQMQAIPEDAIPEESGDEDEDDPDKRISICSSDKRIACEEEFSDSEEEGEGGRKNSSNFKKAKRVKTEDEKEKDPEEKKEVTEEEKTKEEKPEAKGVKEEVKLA
measurementName: IC50

[
  {
    "structureString": "O=C(NO)c1cc2cc(CNCCc3ccccc3)ccc2s1",
    "targetOrTestSystem": "Histone deacetylase 1 (Homo sapiens, UniProt Q13547)",
    "measurementName": "IC50",
    "measValue": "200 nM"
  },
  {
    "structureString": "O=C(Cc1ccccc1)NCc1ccc2cc(C(=O)NO)sc2c1",
    "targetOrTestSystem": "Histone deacetylase 1 (Homo sapiens, UniProt Q13547)",
    "measurementName": "IC50",
    "measValue": "70 nM"
  },
  {
    "structureString": "O=C(NCCc1ccccc1)c1ccc2sc(C(=O)NO)cc2c1",
    "targetOrTestSystem": "Histone deacetylase 1 (Homo sapiens, UniProt Q13547)",
    "measurementName": "IC50",
    "measValue": "155 nM"
  },
  {
    "structureString": "O=C(NCc1ccccc1)c1ccc2sc(C(=O)NO)cc2c1",
    "targetOrTestSystem": "Histone deacetylase 1 (Homo sapiens, UniProt Q13547)",
    "measurementName": "IC50",
    "measValue": "75 nM"
  },
  {
    "structureString": "O=C(NO)c1ccsc1",
    "targetOrTestSystem": "Histone deacetylase 1 (Homo sapiens, UniProt Q13547)",
    "measurementName": "IC50",
    "measValue": "9700 nM"
  },
  {
    "structureString": "CC[C@@H](C(=O)Nc1ccc2cc(C(=O)NO)sc2c1)c1ccccc1",
    "targetOrTestSystem": "Histone deacetylase 1 (Homo sapiens, UniProt Q13547)",
    "measurementName": "IC50",
    "measValue": "60 nM"
  }
]

###

- targetOrTestSystem: Histone deacetylase 1 (Homo sapiens)
Lab note - cut at 100 nM for IC50: 1 if strictly below, -1 if not.

[
  {
    "molecule": "O=C(NO)c1cc2ccc(CNCc3ccccc3)cc2s1",
    "categoryLabel": 1
  },
  {
    "molecule": "CCC(C(=O)Nc1ccc2cc(C(=O)NO)sc2c1)c1ccccc1 (stereo not given)",
    "categoryLabel": 1
  },
  {
    "molecule": "O=C(NO)c1cc2cc(CNc3ccccc3)ccc2s1",
    "categoryLabel": -1
  },
  {
    "molecule": "O=C(Nc1ccccc1)c1ccc2sc(C(=O)NO)cc2c1",
    "categoryLabel": -1
  },
  {
    "molecule": "O=C(NO)c1cc2ccc(CNCCc3ccccc3)cc2s1",
    "categoryLabel": -1
  }
]

###

- assayNotes: Antiproliferative activity against mouse SC9 cells
- Type: functional, cell-based
pIC50: −log10 of the molar value.
Property: pIC50; scope: individual molecules

[
  {
    "structureString": "O=C(NO)c1cc2cc(CNCc3ccccc3)ccc2s1",
    "pIC50": 6.32
  },
  {
    "structureString": "O=C(NC(c1ccccc1)c1ccccc1)c1ccc2cc(C(=O)NO)sc2c1",
    "pIC50": 5.53
  },
  {
    "structureString": "O=C(NO)c1cc2ccc(CNCc3ccccc3)cc2s1",
    "pIC50": 6.80
  },
  {
    "structureString": "CC[C@@H](C(=O)Nc1ccc2cc(C(=O)NO)sc2c1)c1ccccc1",
    "pIC50": 6.28
  },
  {
    "structureString": "O=C(NCCc1ccccc1)c1ccc2sc(C(=O)NO)cc2c1",
    "pIC50": 5.27
  }
]

###

Property: IC50; scope: individual molecules
- assayNotes: Antiproliferative activity against mouse SC9 cells
- Format: functional, cell-based
measurementName: IC50 (nM)

[
  {
    "molecule": "COc1ccc(CC(=O)Nc2ccc3cc(C(=O)NO)sc3c2)cc1",
    "measurementName": "IC50",
    "measValue": 205
  },
  {
    "molecule": "CCC(C(=O)Nc1ccc2cc(C(=O)NO)sc2c1)c1ccccc1 (configuration not stated)",
    "measurementName": "IC50",
    "measValue": 225
  },
  {
    "molecule": "O=C(Nc1ccccc1)c1ccc2sc(C(=O)NO)cc2c1",
    "measurementName": "IC50",
    "measValue": 6140
  },
  {
    "molecule": "O=C(Cc1ccccc1)Nc1ccc2cc(C(=O)NO)sc2c1",
    "measurementName": "IC50",
    "measValue": 220
  },
  {
    "molecule": "O=C(NCc1ccccc1)c1ccc2sc(C(=O)NO)cc2c1",
    "measurementName": "IC50",
    "measValue": 1700
  },
  {
    "molecule": "O=C(NO)c1cc2ccc(CNc3ccccc3)cc2s1",
    "measurementName": "IC50",
    "measValue": 1780
  },
  {
    "molecule": "O=C(Nc1ccc2cc(C(=O)NO)sc2c1)c1ccccc1",
    "measurementName": "IC50",
    "measValue": 2900
  },
  {
    "molecule": "O=C(NCc1ccc2cc(C(=O)NO)sc2c1)c1ccccc1",
    "measurementName": "IC50",
    "measValue": 190
  },
  {
    "molecule": "O=C(Cc1ccccc1)NCc1ccc2cc(C(=O)NO)sc2c1",
    "measurementName": "IC50",
    "measValue": 1220
  },
  {
    "molecule": "COC(=O)c1ccc2cc(C(=O)NO)sc2c1",
    "measurementName": "IC50",
    "measValue": 13900
  },
  {
    "molecule": "CC[C@H](C(=O)Nc1ccc2cc(C(=O)NO)sc2c1)c1ccccc1",
    "measurementName": "IC50",
    "measValue": 140
  },
  {
    "molecule": "O=C(NO)c1cc2cc(CNCCc3ccccc3)ccc2s1",
    "measurementName": "IC50",
    "measValue": 945
  }
]

###

- assayNotes: Antiproliferative activity against mouse SC9 cells
- Format: functional, cell-based
Property: IC50; scope: individual compounds
measurementName: IC50 (µM)

[
  {
    "structureString": "O=C(Cc1ccccc1)Nc1ccc2sc(C(=O)NO)cc2c1",
    "measValue": 1.17
  },
  {
    "structureString": "O=C(NO)c1cc2cc(CNc3ccccc3)ccc2s1",
    "measValue": 4.87
  },
  {
    "structureString": "O=C(NCc1ccccc1)c1ccc2cc(C(=O)NO)sc2c1",
    "measValue": 1.1
  },
  {
    "structureString": "O=C(CCc1ccccc1)Nc1ccc2cc(C(=O)NO)sc2c1",
    "measValue": 5.58
  },
  {
    "structureString": "O=C(Cc1ccc(F)cc1)Nc1ccc2cc(C(=O)NO)sc2c1",
    "measValue": 0.23
  },
  {
    "structureString": "O=C(NO)c1cc2ccc(CNCCc3ccccc3)cc2s1",
    "measValue": 0.455
  }
]
